Ref: patent US9701681B2

TARGET SYSTEM: TRK A, B & C kinase
Construct: fused on or other part: Carna's Trk kinases are usually GST-tagged cytoplasmic domains
EXPERIMENTAL DETAILS: TRK A, B & C kinase assay (ADP-Glo / HTRF KinEASE-TK)
Format: biochemical
CONDITION DETAILS: ADP-Glo or HTRF KinEASE-TK kit, isoform not specified, read-out: IC50 (nM) Enzymatic assay
OBSERVED PROPERTY: IC50

INSERT INTO measurements (molecule, observed_property, result) VALUES
  ('CC(C)(C)c1nnc(-c2cnn3ccc(N4CCCC4c4cc(F)ccc4F)nc23)o1 (stereo not shown)', 'IC50', '< 10 nM'),
  ('CC(C)(C)c1nnc(-c2cnn3ccc(N4C[C@@H](F)C[C@@H]4c4cc(F)ccc4F)nc23)o1', 'IC50', '< 10 nM'),
  ('Fc1ccc(F)c([C@H]2CCCN2c2ccn3ncc(-c4nnc(-c5cn[nH]c5)s4)c3n2)c1', 'IC50', '< 10 nM'),
  ('Cc1nnc(-c2cnn3ccc(N4CCCC4c4cc(F)ccc4F)nc23)o1 (stereo not shown)', 'IC50', '< 10 nM');
